- Assay: Stability in human plasma, RP-HPLC
- Assay type: in vitro ADME
- Stated Conditions: female, 150 µM, 37 °C, within one day, read-out: peptide degraded
No end group written: not given here.

{"columns": ["Substance", "Measure Unit", "metabolised at 24 h, 150 µM"],
 "data": [
  ["PTLHTHNRRRRR-NH2 [L-RD2, reference compound]", "%", 92]
]}

* * *

- Assay: Stability in human plasma, RP-HPLC
- Type: in vitro ADME
- Stated Conditions: female, 37 °C, read-out: half-life (first order kinetics fit) (converted)
Non-standard residues stand in square brackets, D forms with d. Residues, ends and D or L forms follow the SMILES beside them.

{"columns": ["Compound", "half-life at 150 µM"],
 "data": [
  ["CC(C)C[C@@H](NC(=O)[C@H](NC(=O)[C@H]1CCCN1)[C@H](C)O)C(=O)N[C@H](Cc1c[nH]cn1)C(=O)N[C@@H](C(=O)N[C@H](Cc1c[nH]cn1)C(=O)N[C@H](CC(N)=O)C(=O)N[C@H](CCCNC(=N)N)C(=O)N[C@H](CCCNC(=N)N)C(=O)N[C@H](CCCNC(=N)N)C(=O)N[C@H](CCCNC(=N)N)C(=O)N[C@H](CCCNC(=N)N)C(N)=O)[C@H](C)O [RD2, ptlhthnrrrrr] (H-[dP][dT][dL][dH][dT][dH][dN][dR][dR][dR][dR][dR]-NH2)", "216 h"]
]}

* * *

- Study Target: CYP2D6 (Homo sapiens)
- Sequence (P10635 whole entry, canonical isoform): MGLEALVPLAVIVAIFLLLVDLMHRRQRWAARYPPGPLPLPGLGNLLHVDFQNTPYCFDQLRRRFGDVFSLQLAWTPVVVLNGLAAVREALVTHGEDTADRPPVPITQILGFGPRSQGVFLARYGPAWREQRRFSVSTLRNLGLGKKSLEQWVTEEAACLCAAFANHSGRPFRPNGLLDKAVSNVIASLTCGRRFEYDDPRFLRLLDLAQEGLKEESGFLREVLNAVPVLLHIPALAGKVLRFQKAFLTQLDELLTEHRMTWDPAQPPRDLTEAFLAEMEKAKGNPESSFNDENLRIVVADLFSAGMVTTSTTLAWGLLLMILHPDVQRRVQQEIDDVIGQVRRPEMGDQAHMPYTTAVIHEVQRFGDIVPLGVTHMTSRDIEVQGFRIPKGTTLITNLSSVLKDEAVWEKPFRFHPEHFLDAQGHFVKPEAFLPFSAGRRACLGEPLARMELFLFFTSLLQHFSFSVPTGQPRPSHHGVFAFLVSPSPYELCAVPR
- Assay: CYP isoform inhibition in human liver microsomes (Cyprotex)
- Type: in vitro ADME
- Stated Conditions: human, human liver microsomes; 10 µM RD2
Non-standard residues stand in square brackets, D forms with d. Residues, ends and D or L forms follow the SMILES beside them.
Quantity Kind: inhibition at 10 µM

{"columns": ["Compound", "Study Target", "Quantity Kind", "Measured Result"],
 "data": [
  ["CC(C)C[C@@H](NC(=O)[C@H](NC(=O)[C@H]1CCCN1)[C@H](C)O)C(=O)N[C@H](Cc1c[nH]cn1)C(=O)N[C@@H](C(=O)N[C@H](Cc1c[nH]cn1)C(=O)N[C@H](CC(N)=O)C(=O)N[C@H](CCCNC(=N)N)C(=O)N[C@H](CCCNC(=N)N)C(=O)N[C@H](CCCNC(=N)N)C(=O)N[C@H](CCCNC(=N)N)C(=O)N[C@H](CCCNC(=N)N)C(N)=O)[C@H](C)O [RD2, ptlhthnrrrrr] (H-[dP][dT][dL][dH][dT][dH][dN][dR][dR][dR][dR][dR]-NH2)", "CYP2D6 (Homo sapiens)", "inhibition at 10 µM", "-5.9%"]
]}

* * *

- Study Target: UniProt P10635
- Assay: CYP isoform inhibition in human liver microsomes (Cyprotex)
- Format: in vitro ADME
- Stated Conditions: human, human liver microsomes; 0.25 µM RD2
Non-standard residues stand in square brackets, D forms with d. Residues, ends and D or L forms follow the SMILES beside them.
Quantity Kind: inhibition at 0.25 µM (%)

{"columns": ["Compound", "Study Target", "Measured Result"],
 "data": [
  ["CC(C)C[C@@H](NC(=O)[C@H](NC(=O)[C@H]1CCCN1)[C@H](C)O)C(=O)N[C@H](Cc1c[nH]cn1)C(=O)N[C@@H](C(=O)N[C@H](Cc1c[nH]cn1)C(=O)N[C@H](CC(N)=O)C(=O)N[C@H](CCCNC(=N)N)C(=O)N[C@H](CCCNC(=N)N)C(=O)N[C@H](CCCNC(=N)N)C(=O)N[C@H](CCCNC(=N)N)C(=O)N[C@H](CCCNC(=N)N)C(N)=O)[C@H](C)O [RD2, ptlhthnrrrrr] (H-[dP][dT][dL][dH][dT][dH][dN][dR][dR][dR][dR][dR]-NH2)", "UniProt P10635", 1.33]
]}
